test_settings: buffer; pH 7.4; 200.0 µM
property: solubility kinetic

Some solved entries appear below for comparison.
compound: O=C(c1cc2cc(C(F)(F)F)ccc2s1)N1CCOCC1
solubility kinetic: > 47.3 µg/mL

compound: CCN(c1ccccc1)c1nc(=O)c2cccnc2s1
solubility kinetic: > 42.5 µg/mL

compound: Br.C=CCn1c(=N)n(CC(=O)c2ccccc2)c2ccccc21
solubility kinetic: > 55.8 µg/mL

compound: O=C(NC(Cc1ccccc1)C(=O)O)NC12CC3CC(CC(C3)C1)C2 (stereo unspecified)
solubility kinetic: > 51.4 µg/mL

compound: O=C(O)c1ccc(NCc2cccnc2)c([N+](=O)[O-])c1
solubility kinetic: > 41 µg/mL

compound: COc1cccc(NC(=S)N(C)C2CCN(C)CC2)c1
solubility kinetic: > 44 µg/mL

compound: Cc1nnc(SC(C)C#N)n1-c1ccccc1 (stereo unspecified)
solubility kinetic: > 36.6 µg/mL

compound: Cc1ccc(S(=O)(=O)N2CC(O)CC2C(=O)O)cc1 (stereo unspecified)
solubility kinetic: > 42.8 µg/mL

Briefly, solubility kinetic measured for COc1cccc(CNc2cc(C)ccn2)c1O : > 36.6 µg/mL

solubility kinetic recorded for this compound, CC(=O)Nc1sc2c(c1C#N)CCC2 , is > 30.9 µg/mL

Value of measured solubility kinetic for the entry Cc1nc2ccccc2[nH]c1=O : > 24 µg/mL
